Listing of recorded EE by entry.
protocol: mRNA encapsulation efficiency of lipid nanoparticles
Type: physicochemical
protocol_conditions: LNP with cationic lipid CL-B
Just the number in %, nothing appended.

Just so you know, measured EE for CCCCCCCCC(CCCCCCCC)OC(=O)CCCCCCCC(=O)OCC(COP(=O)(O)OCCN(C)C)OC(=O)CCCCCCCC(=O)OC(CCCCCCCC)CCCCCCCC (centres unmarked) [Compound 16] came out at 94

Kindly note the recorded EE for CCCCCCCCC(CCCCCCCC)OC(=O)CCCCCCC(=O)OCC(COP(=O)(O)OCCN(C)CCO)OC(=O)CCCCCCC(=O)OC(CCCCCCCC)CCCCCCCC (centres unmarked) [Compound 25] , which is 95

Sure, the documented EE for CCCCCCCCCCC(CCCCCCCCCC)OC(=O)CCCCCCC(=O)OCC(COP(=O)(O)OCCN(C)C)OC(=O)CCCCCCC(=O)OC(CCCCCCCCCC)CCCCCCCCCC (centres unmarked) [Compound 19] is 93
